Tested on: B cell receptor (BCR) signaling
protocol_summary: B cell activation assay (flow cytometry), mouse B cells
Format: cell-based
cond: treatment 4 h, IgM stimulation 18 h, read-out: CD69 EC50
Quick list: EC50 per entry.
measurement_name: EC50

compound	measurement_target	recorded_value
CN1CCN([C@@H]2CCCN(c3cnc(C(N)=O)c(Nc4ccc(C5CN(CC6CCN(c7ccc8c(=O)n(C9CCC(=O)NC9=O)ccc8c7)CC6)C5)cc4)n3)C2)C1=O (stereo partly drawn) [Compound 69]	B cell receptor (BCR) signaling	0.1 nM
CC#CC(=O)N1CCC[C@H]1c1nc(-c2ccc(C(=O)Nc3ccccn3)cc2)c2c(N)nccn12 [Acalabrutinib, acalabrutinib, reference compound]	B cell receptor (BCR) signaling	1 nM
CN1CCN([C@@H]2CCCN(c3cnc(C(N)=O)c(Nc4ccc(C5(C)CCN(C[C@H]6CCN(c7ccc8c(c7)C(=O)N(C7CCC(=O)NC7=O)C8=O)C6)CC5)cc4)n3)C2)C1=O (stereo partly drawn) [Compound 71]	B cell receptor (BCR) signaling	1 nM
